subject of test: MLKL (Homo sapiens, UniProt Q8NB16)
Sequence (Q8NB16 whole entry): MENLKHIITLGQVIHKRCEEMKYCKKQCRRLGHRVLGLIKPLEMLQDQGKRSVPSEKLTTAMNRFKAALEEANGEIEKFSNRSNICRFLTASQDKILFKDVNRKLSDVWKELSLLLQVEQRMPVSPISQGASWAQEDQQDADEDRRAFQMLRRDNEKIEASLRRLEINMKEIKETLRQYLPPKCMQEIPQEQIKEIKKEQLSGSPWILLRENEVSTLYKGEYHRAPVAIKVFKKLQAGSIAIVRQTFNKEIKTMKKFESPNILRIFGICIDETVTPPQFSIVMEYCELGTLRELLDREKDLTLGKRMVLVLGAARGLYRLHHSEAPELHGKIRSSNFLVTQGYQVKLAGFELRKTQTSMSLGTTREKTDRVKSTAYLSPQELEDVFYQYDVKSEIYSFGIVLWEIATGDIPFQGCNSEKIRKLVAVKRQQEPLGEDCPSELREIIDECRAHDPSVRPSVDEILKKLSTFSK
procedure summary: MLKL degradation assay in HepG2 cell line (western blot)
Assay type: cell-based
Set-up: endogenous in cells; host or cells: HepG2 or HaCaT
reported conditions: compound 10 μM; cell line not given
recorded metric: Degradation assay (Degradation %) 10 μM

Some entries whose results are on file:
| compound | Degradation assay (Degradation %) 10 μM |
| --- | --- |
| Nc1ncc(-c2cnn(C3CCN(CC4CCN(C(=O)CCc5cccc6c5C(=O)N(C5CCC(=O)NC5=O)C6=O)CC4)CC3)c2)nc1C(=O)O[C@@H](C(=O)Nc1ccc(F)cc1)c1ccccc1 (stereo partly shown) [TDH-336] | 66.71 |
| COc1ccc(C(=O)N2CCC(C(=O)N3CCC(OCCN4CCC(CN5CCC(n6cc(-c7cnc(N)c(C(=O)O[C@@H](C(=O)Nc8ccc(F)cc8)c8ccccc8)n7)cn6)CC5)CC4)CC3)CC2)cc1N1CCC(=O)NC1=O [TDH-512] | 80.48 |
| Nc1ncc(-c2cnn(C3CCN(CCCCCCCCCCNC(=O)C4CCN(c5cccc6c5C(=O)N(C5CCC(=O)NC5=O)C6=O)CC4)CC3)c2)nc1C(=O)O[C@@H](C(=O)Nc1ccc(F)cc1)c1ccccc1 (stereo partly shown) [TDH-156] | 18.75 |

A. Nc1ncc(-c2ccc(N3CCN(CCOCCOCCNC(=O)C4CCN(c5ccc6c(c5)C(=O)N(C5CCC(=O)NC5=O)C6=O)CC4)CC3)nc2)nc1C(=O)OC(C(=O)Nc1ccc(F)cc1)c1ccccc1 (stereo not shown) [TDH-258]
B. Nc1ncc(-c2cnn(C3CCN(CC4CCN(c5ccc6c(c5)C(=O)N(C5CCC(=O)NC5=O)C6=O)CC4)CC3)c2)nc1C(=O)O[C@@H](C(=O)Nc1ccc(F)cc1)c1ccccc1 (stereo partly shown) [TDH-150]
C. COc1ccc(C(=O)N2CCC(C(=O)N3CCC(CCN4CCC(CN5CCC(n6cc(-c7cnc(N)c(C(=O)O[C@@H](C(=O)Nc8ccc(F)cc8)c8ccccc8)n7)cn6)CC5)CC4)CC3)CC2)cc1N1CCC(=O)NC1=O [TDH-502]
Input: Give the ascending ranking of the items by reported Degradation assay (Degradation %) 10 μM. Give the labels in the order requested.
Output: A, B, C
